A collection of compounds and their measured INHIBITION
# Tested on: Plasmodium berghei
# assay-details: Screen against P. berghei liver stage (PbLuc), transformed with Luciferase, at 2uM
# Type: functional, HepG2
# cond: tested at 2 uM
Screen size: about 68,000 compounds; about 2,700 (4%) showed an effect of 50% or more. This is one part of a sample in which strong results are shown more often than they occur.
readout-type: INHIBITION (%)

compound: OC(CNCCn1cccn1)c1ccc(C(F)(F)F)cc1 (stereo unspecified)
readout-type: INHIBITION
reported: -33.92
--
compound: COc1ccc(Cl)cc1NC(=O)CCNc1ccc(C#N)cn1
readout-type: INHIBITION
reported: 9.27
--
compound: Nc1nc(CCC(=O)N2C[C@H](c3ccccc3)[C@@H](N)C2)cs1
readout-type: INHIBITION
reported: -10.1
--
compound: FC(F)(F)c1ccc2nc([C@H]3CCN(C4CCOCC4)C3)[nH]c2c1
readout-type: INHIBITION
reported: 54.16
--
compound: FC(F)(F)c1ccc2nc([C@H]3CCN(C4CCC4)C3)[nH]c2c1
readout-type: INHIBITION
reported: 2.22
--
compound: c1cnc(N2CCC3(CN(CC4CCOC4)C3)C2)nc1 (stereo unspecified)
readout-type: INHIBITION
reported: 24.54
--
compound: c1cnc(N2CCC3(CCN(CC4CCOC4)CC3)CC2)nc1 (stereo unspecified)
readout-type: INHIBITION
reported: 42.27
--
compound: COCCNC(=O)[C@H]1CC[C@@H]2[C@@H](CCN2c2ncc(F)cn2)O1
readout-type: INHIBITION
reported: 31.65
--
compound: FC(F)(F)c1ccc2nc([C@H]3CCN(C4CCCCC4)C3)[nH]c2c1
readout-type: INHIBITION
reported: -5.77
--
compound: Cc1nc(C)n(C2CCCN(C(=O)COc3ccccc3)C2)n1 (stereo unspecified)
readout-type: INHIBITION
reported: -2.9
--
compound: O=C(c1cccc(S(=O)(=O)NCCCn2cccn2)c1)N1CCOCC1
readout-type: INHIBITION
reported: 30.8
